molecular target: S1P1 (Homo sapiens, UniProt P21453); test: Receptor binding assay, [33P]sphingosine 1-phosphate competition, S1P1 membranes, WGA SPA beads; conditions: 96 well-plate; read-out: S1P1 binding Ki (M) (96 well-plate)
Sequence (P21453 whole entry, species assumed): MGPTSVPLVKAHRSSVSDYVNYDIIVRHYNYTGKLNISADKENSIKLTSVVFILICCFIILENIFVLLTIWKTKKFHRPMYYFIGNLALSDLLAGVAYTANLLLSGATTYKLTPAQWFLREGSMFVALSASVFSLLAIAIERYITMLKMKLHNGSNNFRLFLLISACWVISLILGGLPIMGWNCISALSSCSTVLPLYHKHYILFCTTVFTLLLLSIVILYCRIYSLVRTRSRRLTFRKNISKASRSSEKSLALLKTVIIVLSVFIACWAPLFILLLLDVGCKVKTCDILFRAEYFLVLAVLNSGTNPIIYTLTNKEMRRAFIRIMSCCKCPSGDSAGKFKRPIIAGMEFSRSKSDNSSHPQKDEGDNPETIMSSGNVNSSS
Counter-ions that a name gives are not always drawn.
Examples of compounds with documented Ki follow.
// return numeric value only (unit: M, not printed)

COCc1cc(-c2nc(-c3cccc(CCN(C)CC(=O)O)c3)no2)ccc1-c1ccccc1C [Example 86] ... 1.46e-10
CCC1CCCCN1c1ccc(-c2nc(-c3cccc(CN(C)CC(=O)O)c3)no2)cc1COC (stereo not shown) [Example 17, hydrochloride salt] ... 4.46e-10

Please turn your attention to the following entry.
Name the recorded Ki for COCc1cc(-c2nc(-c3ccc(CN(C)CC(=O)O)cc3)no2)ccc1-c1cccc(F)c1C [Example 90, hydrochloride salt] . 2.78e-10

====

molecular target: UniProt Q99500; assay: Receptor binding assay, [33P]sphingosine 1-phosphate competition, S1P3 membranes, WGA SPA beads; conditions: 96 well-plate; read-out: S1P3 binding Ki (M) (96 well-plate)
Structures can show the parent of a compound that is named as a salt.
MEASUREMENT_KIND: Ki (M)
Express it in M; write the number only.

CCCN(CC(=O)O)Cc1cccc(-c2noc(-c3ccc(-c4ccccc4C)c(COC)c3)n2)c1 [Example 77, hydrochloride salt] ... 6.05e-07
COCc1cc(-c2nc(-c3cccc(CN(C)CC(=O)O)c3)no2)ccc1-c1cc(F)ccc1Cl [Example 65, hydrochloride salt] ... 2.31e-07
COCc1cc(-c2nc(-c3ccc(CNCC(=O)O)cc3)no2)ccc1-c1ccccc1F [Example 61, hydrochloride salt] ... 1.91e-07

Which value of Ki has been reported for COCc1cc(-c2nc(-c3ccc(CN(C)CC(=O)O)cc3C)no2)ccc1-c1ccccc1C [Example 102] in the records? 2.9e-07

====

assay: Pharmacokinetics in mouse (PK parameters from lymphopenia study); format: in vivo; settings: female, C57BL/6, plasma, po, 30 mg/kg, 30 mpk
Structures can show the parent of a compound that is named as a salt.
MEASUREMENT_KIND: Cmax (ng/mL)
Just the number please, in ng/mL, no unit attached.

Recorded Cmax of COCc1cc(-c2nc(-c3cc(F)cc(CN(C)CC(=O)O)c3)no2)ccc1-c1ccccc1C [Example 20, hydrochloride salt] , please. 10300

====

target: S1P3 (Homo sapiens, UniProt Q99500); experiment: Receptor binding assay, [33P]sphingosine 1-phosphate competition, S1P3 membranes, WGA SPA beads; settings: 96 well-plate; read-out: S1P3 binding Ki (M) (96 well-plate)
Sequence (Q99500 whole entry, species assumed): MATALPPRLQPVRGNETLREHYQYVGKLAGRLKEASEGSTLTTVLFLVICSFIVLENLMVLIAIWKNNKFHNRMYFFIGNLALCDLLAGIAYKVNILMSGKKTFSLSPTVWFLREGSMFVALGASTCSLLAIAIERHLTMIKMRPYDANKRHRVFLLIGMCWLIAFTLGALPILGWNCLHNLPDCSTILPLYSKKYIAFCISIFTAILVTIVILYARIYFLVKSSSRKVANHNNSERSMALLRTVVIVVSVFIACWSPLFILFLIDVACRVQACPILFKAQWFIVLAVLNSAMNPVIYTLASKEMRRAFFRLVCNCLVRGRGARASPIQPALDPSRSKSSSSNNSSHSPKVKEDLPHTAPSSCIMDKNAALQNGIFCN
Structures can show the parent of a compound that is named as a salt.
Known Ki of a selection of compounds
Give just the numeric value; M need not be written.

COCc1cc(-c2nc(-c3ccc(CN(C)CC(=O)O)c(Br)c3)no2)ccc1-c1ccccc1C [Example 53, hydrochloride salt] ... 7e-07

// Ki lookup, key: Cc1ccccc1-c1ccc(-c2nc(-c3cccc(COCC(=O)O)c3)no2)cc1C(F)(F)F 6.03e-07

Need Ki of COCc1cc(-c2nc(-c3cccc(CN(C)CC(=O)O)c3)no2)ccc1-c1ccccc1 , thanks. 6.24e-08

I'd like to know its Ki. The compound in question is COCc1cc(-c2nc(-c3ccc(CN(C)CCC(=O)O)c(F)c3)no2)ccc1-c1ccccc1C [Example 73, hydrochloride salt] 4.95e-08

Requested field: Ki. Item: COCc1cc(-c2nc(-c3ccc(CN(C)CC(=O)O)c(OC)c3)no2)ccc1-c1ccccc1C [Example 79, hydrochloride salt] 4.84e-06

Look up Ki: COc1cc(-c2noc(-c3ccc(N4CCCCC4C)c(C(F)(F)F)c3)n2)ccc1CN(C)CC(=O)O (stereo not drawn) [Example 80, hydrochloride salt] 2.79e-06

Record request: Ki value, item COCc1cc(-c2nc(-c3ccc(CNCC(=O)O)cc3)no2)ccc1-c1ccccc1C [Example 60, hydrochloride salt] 1.93e-07

Field request: Ki | item: COC(C)c1cc(-c2nc(-c3ccc(CN(C)CC(=O)O)cc3)no2)ccc1-c1ccccc1C (stereo not drawn) [Example 140, hydrochloride salt] 1.64e-07

I'd like to know its Ki. The compound in question is C[C@H]1CCCCN1c1ccc(-c2nc(-c3cccc(CN(C)CC(=O)O)c3)no2)cc1C(F)(F)F [Example 46, hydrochloride salt] 1.31e-07

Name the recorded Ki for CC1CCCCN1c1ccc(-c2nc(-c3cccc(CN(C)CC(=O)O)c3)no2)cc1C(F)(F)F (stereo not drawn) . 8.95e-08

Field request: Ki | item: COCc1cc(-c2nc(-c3cccc(CN(CC(=O)O)C(C)C)c3)no2)ccc1-c1ccccc1C [Example 58, hydrochloride salt] 2.02e-07

If you can, please state the reported Ki value of COCc1cc(-c2nc(-c3cc(Cl)cc(CN(C)CC(=O)O)c3)no2)ccc1-c1ccccc1C [Example 93, hydrochloride salt] . 9.4e-08

====

biological target: S1P1 (Homo sapiens); assay: Receptor binding assay, [33P]sphingosine 1-phosphate competition, S1P1 membranes, WGA SPA beads; conditions: 96 well-plate; read-out: S1P1 binding Ki (M) (96 well-plate)
Structures can show the parent of a compound that is named as a salt.
MEASUREMENT_KIND: Ki
Write your answer as a measured quantity: the number, then the unit.

Examples with their reported Ki follow.
COCc1cc(-c2nc(-c3cc(F)c(F)c(OCCCC(=O)O)c3)no2)ccc1-c1ccccc1C ... 4.09e-09 M
COCc1cc(-c2nc(-c3cccc(CN(C)CC(=O)O)c3)no2)ccc1-c1ccccc1F [Example 10, hydrochloride salt] ... 1.79e-10 M
COCc1cc(-c2nc(-c3cccc(COCC(=O)O)c3)no2)ccc1N1CCCCC1C (stereo not shown) [Example 4, hydrochloride salt] ... 4.76e-10 M

What does the record list as Ki for COCc1cc(-c2nc(-c3ccc(OCCO)c(F)c3)no2)ccc1-c1ccccc1C ? 8.88e-10 M

Tell me the measured Ki of COCc1cc(-c2nc(-c3ccc(C(=O)NCCC(=O)O)c(F)c3)no2)ccc1N1CCCCC1C (stereo not shown) , please. 8.32e-10 M

Field request: Ki | item: COCc1cc(-c2nc(-c3ccc(CN(C)CC(=O)O)c(F)c3)no2)ccc1-c1ccccc1F [Example 55, hydrochloride salt] 1.59e-10 M

Give the measured Ki of COCc1cc(-c2nc(-c3cccc(COCCC(=O)O)c3)no2)ccc1N1CCCCC1C (stereo not shown) [Example 9, hydrochloride salt] . 8.04e-10 M

Record request: Ki value, item COCc1cc(-c2nc(-c3ccc(CN(C)CC(=O)O)c(F)c3)no2)ccc1-c1cccc(F)c1C [Example 91, hydrochloride salt] 1.63e-10 M

Returns the measured Ki for the input molecule. Input: COCc1cc(-c2nc(-c3cccc(CN(C)CC(=O)O)c3)no2)ccc1-c1cccc(F)c1C [Example 35, hydrochloride salt] 1.98e-10 M

Returns the measured Ki for the input molecule. Input: COCc1cc(-c2nc(-c3cccc(NCC(O)CO)c3)no2)ccc1-c1ccccc1C (stereo not shown) 7.11e-10 M

Ki lookup needed for COCc1cc(-c2nc(-c3cccc(CN(C)CC(=O)O)c3)no2)ccc1N1CCCCC1 , thanks. 1.47e-10 M

Endpoint output: Ki of CCN(CC(=O)O)Cc1cccc(-c2noc(-c3ccc(-c4ccccc4C)c(COC)c3)n2)c1 [Example 78, hydrochloride salt] . Value? 4.41e-10 M

Requested field: Ki. Item: CCCN(CC(=O)O)Cc1cccc(-c2noc(-c3ccc(-c4ccccc4C)c(COC)c3)n2)c1 [Example 77, hydrochloride salt] 1.58e-09 M

====

assay: Pharmacokinetics in mouse (PK parameters from lymphopenia study); assay type: in vivo; settings: female, C57BL/6, plasma, po, 30 mg/kg, 30 mpk
Where a name gives a salt, the structure may show the parent alone.
MEASUREMENT_KIND: half-life (h)
Write the value in h as a bare number.

Requested read-out: half-life. Entry: COCc1cc(-c2nc(-c3cc(F)cc(CN(C)CC(=O)O)c3)no2)ccc1-c1ccccc1C [Example 20, hydrochloride salt] 5.3

====

target: UniProt:P21453; assay: S1P1 internalization assay in S1P1-U2OS cells (S1P1-EGFP), cell imaging; type: cell-based; set-up: host or cells: U2OS (human bone osteosarcoma epithelial cells), CMV promoter, geneticin selection; details: 1 hour incubation
Sequence (P21453 whole entry): as the sequence (P21453 whole entry, species assumed) above
pEC50: −log10 of the molar value. Where a name gives a salt, the structure may show the parent alone.
Param threshold (8) applies to pEC50; output Y when value >= threshold, N when value < threshold.

Check out these entries, answers already filled in.
COCc1cc(-c2nc(-c3cccc(CN(C)CC(=O)O)c3)no2)ccc1-c1ccc(F)c(F)c1C [Example 42, hydrochloride salt] ... N
COCc1cc(-c2nc(-c3cccc(COCCC(=O)O)c3)no2)ccc1-c1ccccc1C [Example 7] ... N
COCc1cc(-c2nc(-c3cccc(CCN(C)CC(=O)O)c3)no2)ccc1-c1ccccc1C [Example 86] ... Y

Form field: pEC50 at least 8? Entry: COCc1cc(-c2nc(-c3cccc(CN(C)CC(=O)O)c3)no2)ccc1-c1ccccc1F [Example 10, hydrochloride salt] Y

Does pEC50 meet or surpass 8 for COCc1cc(-c2nc(-c3cccc(CC(=O)NCCC(=O)O)c3)no2)ccc1-c1ccccc1C [Example 43] ? N

Is the recorded value of pEC50 equal to or greater than 8 for this molecule? COCc1cc(-c2nc(-c3ccc(CN(C)CCC(=O)O)c(F)c3)no2)ccc1-c1ccccc1C [Example 73, hydrochloride salt] Y

Is it the case that Cc1ccccc1-c1ccc(-c2nc(-c3ccc(CN(C)CC(=O)O)cc3)no2)cc1C [Example 130, hydrochloride salt] has pEC50 reaching or exceeding 8? N

Attribution: patent US8815919B2
